System: Staphylococcus aureus
Test: In vitro minimum inhibitory concentration against Staphylococcus aureus 209p
Assay type: functional
ATTRIBUTE MEASURED: MIC

{"COMPOUND": "C[C@@H](O)[C@H]1C(=O)N2C(C(=O)O)=C(Sc3nc(-c4ccc5ccncc5c4)cs3)[C@H](C)[C@H]12", "ATTRIBUTE MEASURED": "MIC", "VALUE OBSERVED": "< 0.006 µg/mL"}
{"COMPOUND": "C[C@@H](O)[C@H]1C(=O)N2C(C(=O)O)=C(Sc3nc(-c4ccccc4)cs3)[C@H](C)[C@H]12", "ATTRIBUTE MEASURED": "MIC", "VALUE OBSERVED": "< 0.013 µg/mL"}
{"COMPOUND": "C[C@@H](O)[C@H]1C(=O)N2C(C(=O)O)=C(Sc3nc(-c4cccnc4)cs3)[C@H](C)[C@H]12", "ATTRIBUTE MEASURED": "MIC", "VALUE OBSERVED": "< 0.013 µg/mL"}

Given the compound `Cc1csc(SC2=C(C(=O)O)N3C(=O)[C@H]([C@@H](C)O)[C@H]3[C@H]2C)n1` , what is its reported MIC? 0.025 µg/mL

Let us now turn to C[C@@H](O)[C@H]1C(=O)N2C(C(=O)O)=C(SCCNC=N)C[C@H]12 [IMIPENEM ANHYDROUS] 0.013 µg/mL

// same read-out, input: `C[C@@H](O)[C@H]1C(=O)N2C(C(=O)O)=C(Sc3nc(-c4ccc(C(N)=O)cc4)cs3)[C@H](C)[C@H]12` < 0.006 µg/mL

`C[C@@H](O)[C@H]1C(=O)N2C(C(=O)O)=C(Sc3nc(-c4ccc(CN)cc4)cs3)[C@H](C)[C@H]12` , same question. < 0.006 µg/mL
